- tgt: Muscarinic acetylcholine receptor M2 (Homo sapiens)
- Sequence (P08172 whole entry): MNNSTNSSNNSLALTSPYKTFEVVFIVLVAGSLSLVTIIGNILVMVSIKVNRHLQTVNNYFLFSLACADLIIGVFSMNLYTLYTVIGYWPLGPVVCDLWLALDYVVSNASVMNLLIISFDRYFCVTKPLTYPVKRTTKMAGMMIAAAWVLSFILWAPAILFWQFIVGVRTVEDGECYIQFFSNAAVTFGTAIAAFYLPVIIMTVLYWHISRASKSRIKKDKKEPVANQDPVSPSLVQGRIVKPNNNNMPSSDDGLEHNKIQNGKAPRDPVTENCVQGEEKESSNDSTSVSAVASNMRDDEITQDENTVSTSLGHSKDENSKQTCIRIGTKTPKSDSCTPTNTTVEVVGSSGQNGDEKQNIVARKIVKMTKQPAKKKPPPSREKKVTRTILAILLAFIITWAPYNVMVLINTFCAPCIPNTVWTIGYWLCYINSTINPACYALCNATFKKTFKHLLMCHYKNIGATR
- Type: cell membranes, CHO-K1, Membrane
- condition label: cho-k1; further: in other assays of this panel Not Active means under 50% inhibition at 10 µM
metric name: IC50

Example compounds with recorded IC50:
Query IC50 for CC(=O)O[C@]1(C(C)=O)CC[C@H]2[C@@H]3C=C(C)C4=CC(=O)CC[C@]4(C)[C@H]3CC[C@@]21C [MEGESTROL ACETATE] Not Active

Query IC50 for [N-]=[N+]=CC(=O)OC[C@H](N)C(=O)O Not Active

Query IC50 for COc1cc(CNC(=O)CCCC/C=C/C(C)C)ccc1O Not Active

Query IC50 for Cc1cn([C@H]2C[C@H](N=[N+]=[N-])[C@@H](CO)O2)c(=O)[nH]c1=O Not Active

Query IC50 for C#C[C@]1(O)CC[C@H]2[C@@H]3CCC4=Cc5oncc5C[C@]4(C)[C@H]3CC[C@@]21C Not Active

Query IC50 for CC(C)C[C@H]1C(=O)N2CCC[C@H]2[C@]2(O)O[C@](NC(=O)[C@@H]3C=C4c5cccc6[nH]c(Br)c(c56)C[C@H]4N(C)C3)(C(C)C)C(=O)N12 Not Active

Query IC50 for CC(C)(Oc1ccc(C2CC2(Cl)Cl)cc1)C(=O)O (stereo unspecified) [CIPROFIBRATE] Not Active

Query IC50 for C[C@@H](O)[C@H]1C(=O)N2C(C(=O)O)=C(S[C@@H]3CN[C@H](C(=O)N(C)C)C3)[C@H](C)[C@H]12 Not Active

Query IC50 for COc1ccc2cc(CCC(C)=O)ccc2c1 Not Active

Query IC50 for C=C1/C(=C\C=C2/CCC[C@]3(C)[C@@H]([C@H](C)CCCC(C)C)CC[C@@H]23)C[C@@H](O)C[C@@H]1O Not Active

Let us move to another entry and its IC50.
Query IC50 for O=C(O)c1cc(=O)c2c(OCC(O)COc3cccc4oc(C(=O)O)cc(=O)c34)cccc2o1 Not Active
